Data export: IC50 values recorded with UniProt:P00533.
Sequence (P00533 669-1210 limits assumed): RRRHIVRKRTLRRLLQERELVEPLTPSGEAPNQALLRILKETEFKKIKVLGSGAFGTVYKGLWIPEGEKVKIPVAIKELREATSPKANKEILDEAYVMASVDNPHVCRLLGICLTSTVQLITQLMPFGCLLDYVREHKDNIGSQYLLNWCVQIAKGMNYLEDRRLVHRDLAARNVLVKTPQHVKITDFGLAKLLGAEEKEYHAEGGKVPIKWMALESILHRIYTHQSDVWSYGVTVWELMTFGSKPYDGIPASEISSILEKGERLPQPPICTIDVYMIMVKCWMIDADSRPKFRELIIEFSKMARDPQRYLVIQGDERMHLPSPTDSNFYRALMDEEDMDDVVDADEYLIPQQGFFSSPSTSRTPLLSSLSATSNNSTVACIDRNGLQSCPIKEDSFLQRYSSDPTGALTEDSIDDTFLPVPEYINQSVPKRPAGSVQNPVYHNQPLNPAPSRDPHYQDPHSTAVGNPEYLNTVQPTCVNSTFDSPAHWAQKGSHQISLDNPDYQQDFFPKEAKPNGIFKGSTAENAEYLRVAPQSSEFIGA
Could you give me the number in µM? Just the number is fine.

# example entries with known answers
# molecule, IC50 [µM]
rows = [
    ("NC(=O)c1c(OCc2cc3c(cc2F)CCO3)nsc1NC(=O)NCCCCN1CC[C@@H](F)C1 [Compound T079]", 5.14),
    ("NC(=O)c1c(OCc2ccc(F)c(C(=O)NC3CC3)c2)nsc1NC(=O)NCCCCN1CC[C@@H](O)C1 [Compound T150]", 7.42),
    ("NC(=O)c1c(OCc2cc(C(=O)NC3CC3)ccc2F)nsc1NC(=O)NCCCCN1CCCC1 [Compound T087]", 15.2),
    ("CN1CCN(CCCNC(=O)Nc2snc(OCc3ccc(F)c(C(=O)NC4CC4)c3)c2C(N)=O)CC1 [Compound T078]", 16.1),
    ("CN1CCN(CCCNC(=O)Nc2snc(OCc3ccc4c(c3)OCC4)c2C(N)=O)CC1 [Compound T077]", 52),
    ("CN1CCN(CCNC(=O)Nc2snc(OCc3ccc(F)c(C(=O)NC4CC4)c3)c2C(N)=O)CC1 [Compound T149]", 12),
    ("NC(=O)c1c(OCc2cc(C(=O)NC3CC3)ccc2F)nsc1NC(=O)NCCCN1CC[C@@H](O)C1 [Compound T106]", 20.1),
    ("COc1ccc(F)c(COc2nsc(NC(=O)NCCCN3CCN(C)CC3)c2C(N)=O)c1F [Compound T107]", 9.14),
    ("COc1ccc(F)c(COc2nsc(NC(=O)NCCCCN3CCC(F)CC3)c2C(N)=O)c1F [Compound T125]", 9.71),
    ("CN1CCC(CCNC(=O)Nc2snc(OCc3cc(F)c4c(c3)OCC4)c2C(N)=O)CC1 [Compound T089]", 15.1),
]

Prompt: Return IC50 measured with UniProt:P00533 given this molecule: CC(=O)N1CCN(CCCNC(=O)Nc2snc(OCc3ccc(F)c(C(=O)NC4CC4)c3)c2C(N)=O)CC1 [Compound T157]
Response: 15.2

Prompt: What value of IC50 on UniProt:P00533 does NC(=O)c1c(OCc2cc3c(cc2F)CCO3)nsc1NC(=O)NCCC1CCN(CCF)CC1 [Compound T103] have?
Response: 5.49

Prompt: Given the entry CNC(=O)c1cccc(COc2nsc(NC(=O)NCCC3CCN(C)CC3)c2C(N)=O)c1 [Compound T055] , what IC50 was observed with UniProt:P00533?
Response: 49.7
